B1: Zinc finger homeobox protein 4, residues 2086 to 2141; numbered along this chain, Q86UP3 (parent)
chain: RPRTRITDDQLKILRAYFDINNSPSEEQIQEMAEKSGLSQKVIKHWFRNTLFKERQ

# Variants of: B1
# method-summary: abundance fitness (aPCA) (normalised: wild type 0, dead -1); higher = more abundant; growth selection in yeast, the domain comes from the species named
# stated-conditions: Homo sapiens
This listing pairs variants with measured abundance fitness.
outcome-measure: abundance fitness

E34Y :: -0.502
L51D :: -0.047
H45K :: 0.038
K53T :: -0.042
E31R :: -0.007
R48H :: 0.049
E31Y :: -0.162
K41E :: -0.043
Q56K :: 0.295
Q56M :: -0.12
Q28W :: -0.38
K53N :: -0.023
Q56T :: -0.07
Q40C :: -0.1
L38M :: -0.011
Q28S :: -0.095
T50G :: -0.079
F18S :: -0.142
E27S :: -0.105
Q40V :: -0.098
S23D :: -0.131
N49A :: -0.023
K44T :: -0.017
E54H :: -0.238
R48E :: -0.153
D19L :: 0.086
K41L :: -0.174
E54F :: -0.231
H45Y :: -0.034
R55C :: 0.016
Q28P :: -0.533
I43E :: -0.946
K41H :: 0.033
